- Assay Overview: in vitro
- Condition Details: human, hela cells, % viability
Recorded viability at 28.5 h, 10 µM values for a group of molecules are listed next.

[
  {
    "Molecule": "COc1ccc(C(C)C)cc1-c1cnc2[nH]c(=O)n([C@H](CO)C(C)C)c2n1",
    "viability at 28.5 h, 10 µM, %": 96.2
  },
  {
    "Molecule": "Cc1noc(C2COCCN2C(=O)c2cc(Cl)cn2C)n1 (stereo not shown)",
    "viability at 28.5 h, 10 µM, %": 98.8
  },
  {
    "Molecule": "COc1ccc(CCC(=O)Nc2cccc(-c3ccc(OC4CCNCC4)cc3)c2)cc1OC [CBK131925T]",
    "viability at 28.5 h, 10 µM, %": 100
  },
  {
    "Molecule": "N=C(N)NC(=N)Nc1ccc2c(c1)OCCO2 [CBK021572C]",
    "viability at 28.5 h, 10 µM, %": 84.3
  },
  {
    "Molecule": "COc1ccc(CN(C)C2CCOCC2)cc1Cn1cncn1",
    "viability at 28.5 h, 10 µM, %": 93.9
  },
  {
    "Molecule": "Cc1ccccc1-c1ccc(C(=O)NCCc2ccc(S(N)(=O)=O)cc2)c(NCc2cccnc2)n1",
    "viability at 28.5 h, 10 µM, %": 98.4
  },
  {
    "Molecule": "CSc1nc(O)nc(-c2ccccc2)n1",
    "viability at 28.5 h, 10 µM, %": 95.4
  },
  {
    "Molecule": "O=c1[nH]nc2c(S(=O)(=O)N3CCCC3)cccn12",
    "viability at 28.5 h, 10 µM, %": 85.9
  },
  {
    "Molecule": "O=[N+]([O-])c1cccc(-c2noc(COc3ccc(Br)cc3Cl)n2)c1",
    "viability at 28.5 h, 10 µM, %": 101
  },
  {
    "Molecule": "O=C(NC1(c2ccccc2)CC1)c1cc(-n2cnnc2)ccc1Cl",
    "viability at 28.5 h, 10 µM, %": 97.2
  }
]

====

Recorded viability at 28.5 h, 10 µM values for a group of compounds are listed next.
- Assay Overview: in vitro
- Condition Details: human, hela cells, % viability
Readout Kind: viability at 28.5 h, 10 µM (%)

[
  {
    "Compound": "Cc1ccn2cc(C(=O)NCCSc3nccn3C)nc2c1 [CBK281417]",
    "Unit Spec": "%",
    "Value": 104
  },
  {
    "Compound": "CCOC(=O)CC(=O)N1CCC(c2onc3c2CC(C)CC3)CC1 (centres unmarked) [CBK285187]",
    "Unit Spec": "%",
    "Value": 100
  },
  {
    "Compound": "CC1(C)CC(=O)C=C(C(=O)Nc2cncc(OC3CCNCC3)n2)O1 [CBK038922T]",
    "Unit Spec": "%",
    "Value": 103
  },
  {
    "Compound": "CC(=O)Nc1ccc(-c2cncc(N(CCO)CCO)n2)cc1 [CBK065789]",
    "Unit Spec": "%",
    "Value": 106
  },
  {
    "Compound": "CC(C)(O)C#Cc1ccc(C(=O)N2CCC(C(N)=O)(N3CCCCC3)CC2)cc1 [CBK264065]",
    "Unit Spec": "%",
    "Value": 97.3
  },
  {
    "Compound": "COc1cc2c(cc1OC)CN(C(=O)N(CCN)CCC(C)c1ccccc1)CC2 (centres unmarked) [CBK000612C]",
    "Unit Spec": "%",
    "Value": 80.9
  },
  {
    "Compound": "N/C(CSc1cccc2c1CCCC2)=N\\O [CBK006787C]",
    "Unit Spec": "%",
    "Value": 101
  },
  {
    "Compound": "CN1CC(C(=O)N2C3CCC2CC(c2ccc(F)cc2)C3)CC1=O (centres unmarked) [CBK283769]",
    "Unit Spec": "%",
    "Value": 96.3
  },
  {
    "Compound": "Cn1cccc1C(=O)Nc1ccccc1N1CCNCC1 [CBK029450T]",
    "Unit Spec": "%",
    "Value": 95.4
  },
  {
    "Compound": "O=S(=O)(c1ccccc1)N1C[C@@H]2CCCCN(CC3CC3)[C@@H]2C1 [CBK285501]",
    "Unit Spec": "%",
    "Value": 109
  },
  {
    "Compound": "Cc1cnccc1-c1c[nH]nc1C1CCCN1C(=O)c1ccccc1 (centres unmarked) [CBK285499]",
    "Unit Spec": "%",
    "Value": 104
  },
  {
    "Compound": "Cc1nc2n(c(=O)c1CCSc1ccccc1C(=O)O)CCCC2 [CBK286818]",
    "Unit Spec": "%",
    "Value": 102
  },
  {
    "Compound": "C[C@@H]1CN2CCCC2CN1CCc1ccccc1 (some centres unmarked) [CBK285424]",
    "Unit Spec": "%",
    "Value": 85.4
  },
  {
    "Compound": "CC(C)(C)c1ccc(C(=O)NC(=S)Nc2ccc(O)c(-c3nc4cc(Cl)ccc4o3)c2)cc1 [CBK264169]",
    "Unit Spec": "%",
    "Value": 88
  },
  {
    "Compound": "Oc1ccc(Nc2cc(-c3ccc(Cl)cc3)ncn2)cc1 [CBK090751]",
    "Unit Spec": "%",
    "Value": 94.3
  },
  {
    "Compound": "CCOc1cc(-c2nc3sc(CC)cc3c(=O)[nH]2)ccc1OCC(=O)O [CBK298291]",
    "Unit Spec": "%",
    "Value": 88.4
  },
  {
    "Compound": "CC1CCN(S(=O)(=O)c2cccc(C(=O)NNC(=O)c3cccc([N+](=O)[O-])c3)c2)CC1 [CBK266774]",
    "Unit Spec": "%",
    "Value": 98
  },
  {
    "Compound": "CC(=O)CSc1nc2c(c(=O)n(C)c(=O)n2C)n1CCCc1ccccc1 [CBK269581]",
    "Unit Spec": "%",
    "Value": 84.6
  },
  {
    "Compound": "Cc1nc(C(Cc2ccsc2)NC(=O)Cn2ccnc2)sc1C (centres unmarked) [CBK284777]",
    "Unit Spec": "%",
    "Value": 102
  },
  {
    "Compound": "CCC(=O)Nc1ccc(-c2csc(N3CCSCC3)n2)cc1 [CBK306469]",
    "Unit Spec": "%",
    "Value": 87
  },
  {
    "Compound": "CCN1CCN(c2ccc(NC(=O)c3cc(-n4cnnc4)ccc3Cl)cc2Cl)CC1 [CBK269343]",
    "Unit Spec": "%",
    "Value": 88.1
  },
  {
    "Compound": "CS(=O)(=O)NC1CCN(c2nc(C(=O)O)nc3ccccc23)CC1 [CBK304316N]",
    "Unit Spec": "%",
    "Value": 105
  },
  {
    "Compound": "Nc1ccc2ccc(-c3ccccc3)nc2n1 [CBK061865]",
    "Unit Spec": "%",
    "Value": 97
  },
  {
    "Compound": "CC(C)(C)c1cc(C(=O)NCC(=O)NCC(=O)O)cc(C(C)(C)C)c1 [CBK262200]",
    "Unit Spec": "%",
    "Value": 96
  },
  {
    "Compound": "O=C(C1=C(O)C(=O)N(CCN2CCOCC2)C1c1cccc(Br)c1)c1ccco1 (centres unmarked) [CBK264490]",
    "Unit Spec": "%",
    "Value": 94.4
  },
  {
    "Compound": "COc1cccc(CN2CC[C@@H]3[C@H](C2)[C@@H](c2ccc(F)cc2)CN3C(=O)c2ccccc2)c1 [CBK286292]",
    "Unit Spec": "%",
    "Value": 107
  },
  {
    "Compound": "Cn1c(SCC(=O)c2ccccc2)nnc1-c1ccc(NC(=O)c2ccccc2Cl)cc1 [CBK264357]",
    "Unit Spec": "%",
    "Value": 95
  },
  {
    "Compound": "COc1ccc(C2CCN(CC(=O)NC(C)(C)C)CC2)cc1 [CBK283558]",
    "Unit Spec": "%",
    "Value": 92.7
  },
  {
    "Compound": "Cc1cc(CN(C)Cc2cn(C)c3cc(F)ccc23)n[nH]1 [CBK281710]",
    "Unit Spec": "%",
    "Value": 89.6
  },
  {
    "Compound": "COc1cccc(C2(NC(=O)CCn3nccc3C)CCCC2)c1 [CBK283601]",
    "Unit Spec": "%",
    "Value": 101
  },
  {
    "Compound": "CS(=O)(=O)Nc1cc2ccccc2c(-c2ccc(OCc3ccccc3)c(F)c2)n1 [CBK073785]",
    "Unit Spec": "%",
    "Value": 92.7
  },
  {
    "Compound": "COc1ccc(CC(=O)N2CCCC(c3cc4ncccc4[nH]3)C2)cc1 (centres unmarked) [CBK283418]",
    "Unit Spec": "%",
    "Value": 94.5
  },
  {
    "Compound": "O=C1COc2ccccc2C/C=C/C[C@H]2CN(C(=O)CN3CCN(CCO)CC3)CC[C@H]2N1 [CBK292146]",
    "Unit Spec": "%",
    "Value": 110
  },
  {
    "Compound": "S=C(NCc1ccccc1)Nc1ccccc1 [CBK091617]",
    "Unit Spec": "%",
    "Value": 105
  },
  {
    "Compound": "O=C(O)C(Cc1ccccc1)NS(=O)(=O)c1ccc(I)cc1 (centres unmarked) [CBK268807]",
    "Unit Spec": "%",
    "Value": 110
  },
  {
    "Compound": "O=C(O)CSc1ccc(Br)c2cccc(C(=O)O)c12 [CBK126919]",
    "Unit Spec": "%",
    "Value": 99.2
  },
  {
    "Compound": "CCNC(=O)c1cn(Cc2ccccc2)nn1 [CBK073904]",
    "Unit Spec": "%",
    "Value": 97.9
  },
  {
    "Compound": "COC(=O)c1cc(C(=O)CSc2nc(N)cc(O)n2)ccc1O [CBK110407]",
    "Unit Spec": "%",
    "Value": 92.2
  }
]
